# TARGET_UNDER_TEST: T1, full-length human 14-3-3γ fused to the C terminus of MBP (human, UniProt P61981 1-247)
# T1 chain: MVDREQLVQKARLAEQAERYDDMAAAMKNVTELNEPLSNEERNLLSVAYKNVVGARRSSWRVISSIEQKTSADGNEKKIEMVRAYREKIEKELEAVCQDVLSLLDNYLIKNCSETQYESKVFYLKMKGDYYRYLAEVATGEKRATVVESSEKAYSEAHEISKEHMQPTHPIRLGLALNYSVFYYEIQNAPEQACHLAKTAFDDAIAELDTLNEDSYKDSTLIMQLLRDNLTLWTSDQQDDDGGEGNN
# TEST_SUMMARY: FP
pKd: −log10 of the molar value. Non-standard residues stand in square brackets, D forms with d. No end group written: not given here. *: point of attachment. FITC = O=C1OC2(c3ccc(O)cc3Oc3cc(O)ccc32)c2ccc(NC(=S)*)cc21; Biotin = O=C1N[C@H]2[C@H](CS[C@H]2CCCCC(=O)*)N1; pT = C[C@@H](OP(=O)(O)O)[C@H](N)C(=O)O; ttds = NCCCOCCOCCOCCCNC(=O)CCC(=O)*; pS = N[C@@H](COP(=O)(O)O)C(=O)O

[
  {
    "BINDER": "{Biotin-ttds}-SSRTRRE[pT]QL [HPV16 E6 phospho-PBM peptide p16E6]",
    "pKd": 4.43
  },
  {
    "BINDER": "{Biotin-ttds}-RRVRKLPST[pT]L [RSK1 phospho-PBM peptide RSK1_-1P]",
    "pKd": 6.51
  },
  {
    "BINDER": "{Biotin-ttds}-RLQRRRE[pT]QV [HPV18 E6 phospho-PBM peptide p18E6]",
    "pKd": 4.95
  },
  {
    "BINDER": "{FITC}-WLRRA[pS]APLPGLK [fluorescently labeled HSPB6 phosphopeptide (fpB6)]",
    "pKd": 5.71
  }
]
